Target: human EGFR (huEGFR) over-expressed on mcl-1-/- mouse embryonic fibroblasts (human, UniProt P00533 25-1210)
Assay: cell-based or functional assay
Recorded huEGFR+ mcl-1-/- MEF EC50 for the following binders
// return numeric value only (unit: nM, not printed)

The cases that follow already have their huEGFR+ mcl-1-/- MEF EC50 on record.
Binder: AbB-ZZ (antibody, human IgG1, kappa, V domains shown, synthon ZZ on reduced interchain cysteines; average DAR 1.1 per ADC) VH: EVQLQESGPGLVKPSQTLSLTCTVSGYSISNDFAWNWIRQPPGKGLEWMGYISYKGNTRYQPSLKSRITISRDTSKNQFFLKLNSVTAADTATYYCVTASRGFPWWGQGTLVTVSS VL: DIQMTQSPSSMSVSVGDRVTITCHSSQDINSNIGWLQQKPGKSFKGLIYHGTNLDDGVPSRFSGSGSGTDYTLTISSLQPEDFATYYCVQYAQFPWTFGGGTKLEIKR
huEGFR+ mcl-1-/- MEF EC50, nM: 7.4
--
Binder: AbK-ZZ (antibody, human IgG1, kappa, V domains shown, synthon ZZ on reduced interchain cysteines; average DAR 1.9 per ADC) VH: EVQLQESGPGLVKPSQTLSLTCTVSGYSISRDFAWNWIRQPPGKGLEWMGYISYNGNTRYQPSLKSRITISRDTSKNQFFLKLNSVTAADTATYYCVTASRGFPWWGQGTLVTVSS VL: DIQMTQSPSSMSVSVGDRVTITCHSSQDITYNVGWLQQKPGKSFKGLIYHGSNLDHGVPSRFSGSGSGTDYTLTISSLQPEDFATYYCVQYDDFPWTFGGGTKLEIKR
huEGFR+ mcl-1-/- MEF EC50, nM: 45
--
Binder: AbG-TV (antibody, human IgG1, kappa, V domains shown, synthon TV on reduced interchain cysteines; average DAR 3.7 per ADC) VH: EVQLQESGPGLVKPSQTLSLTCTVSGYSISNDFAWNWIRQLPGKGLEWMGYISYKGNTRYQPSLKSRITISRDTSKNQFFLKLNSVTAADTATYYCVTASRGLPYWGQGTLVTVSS VL: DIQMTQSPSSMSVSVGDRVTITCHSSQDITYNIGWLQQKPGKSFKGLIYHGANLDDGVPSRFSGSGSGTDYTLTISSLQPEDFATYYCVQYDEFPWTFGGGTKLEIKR
huEGFR+ mcl-1-/- MEF EC50, nM: 2.6
--
Binder: AbB-WD (antibody, human IgG1, kappa, V domains shown, synthon WD on reduced interchain cysteines; average DAR 1.6 per ADC) VH: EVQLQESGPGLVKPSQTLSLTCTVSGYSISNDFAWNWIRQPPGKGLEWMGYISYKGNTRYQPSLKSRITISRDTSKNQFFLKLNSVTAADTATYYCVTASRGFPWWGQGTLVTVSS VL: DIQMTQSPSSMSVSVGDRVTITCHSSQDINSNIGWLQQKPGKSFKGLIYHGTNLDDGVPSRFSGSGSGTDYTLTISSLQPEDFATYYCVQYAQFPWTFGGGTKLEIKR
huEGFR+ mcl-1-/- MEF EC50, nM: 23
--
Binder: AbA-SE (antibody, human IgG1, kappa, V domains shown, synthon SE on reduced interchain cysteines; average DAR 2.8 per ADC) VH: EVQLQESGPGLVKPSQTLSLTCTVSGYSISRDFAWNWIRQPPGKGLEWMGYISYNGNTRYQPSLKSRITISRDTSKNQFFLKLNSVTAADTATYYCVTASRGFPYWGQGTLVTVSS VL: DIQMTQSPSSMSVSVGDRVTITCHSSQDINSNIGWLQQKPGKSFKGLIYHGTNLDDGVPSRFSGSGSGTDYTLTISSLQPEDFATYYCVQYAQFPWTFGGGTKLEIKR
huEGFR+ mcl-1-/- MEF EC50, nM: 105

Could you please provide reported huEGFR+ mcl-1-/- MEF EC50 for AbK-TX (antibody, human IgG1, kappa, V domains shown, synthon TX on reduced interchain cysteines; average DAR 2.2 per ADC) VH: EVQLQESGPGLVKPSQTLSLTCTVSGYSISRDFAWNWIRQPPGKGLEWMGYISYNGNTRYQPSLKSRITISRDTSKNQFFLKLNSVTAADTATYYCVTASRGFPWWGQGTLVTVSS VL: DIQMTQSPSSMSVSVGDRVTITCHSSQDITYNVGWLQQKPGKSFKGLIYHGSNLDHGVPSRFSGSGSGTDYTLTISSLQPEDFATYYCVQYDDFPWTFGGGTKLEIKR ? Thanks!
0.79
